The reported measurements were obtained from ChEMBL document CHEMBL1148617.

- EXPERIMENTAL TARGET: Adenosine receptor A2b (Homo sapiens)
- EXPERIMENT DESCRIPTION: Displacement of [3H]DPCPX from recombinant human adenosine A2B receptor expressed in HEK293 cells at 0.1 uM
- Assay type: cell-based
OBSERVED PROPERTY: inhibition (%)

Here are 4 molecules together with their reported answers.
MOLECULE	OBSERVED PROPERTY	RESULT VALUE
CCCn1c(=O)c2[nH]c(-c3ccc(OCC(=O)O)cc3)c(Cl)c2n(CCC)c1=O	inhibition	36
CCOC(=O)COc1ccc(-c2cc3c([nH]2)c(=O)n(C)c(=O)n3C)cc1	inhibition	25
O=C(COc1ccc(-c2cc3c([nH]2)c(=O)n(CC(F)(F)F)c(=O)n3CC(F)(F)F)cc1)Nc1ccccc1	inhibition	57
CCCn1c(=O)c2[nH]c(-c3ccc(OCC(=O)O)cc3Cl)cc2n(CCC)c1=O	inhibition	10

[P] CCCn1c(=O)c2[nH]c(-c3ccc(OC(C)C(=O)Nc4ccc(OC)cc4)cc3)cc2n(CCC)c1=O (stereo not drawn)
[Q] CCCn1c(=O)n(C)c(=O)c2[nH]c(-c3ccc(OCC(=O)Nc4ccc5c(c4)CCC5=O)cc3)cc21
[R] CCOC(=O)COc1ccc(-c2cc3c([nH]2)c(=O)n(C)c(=O)n3C)cc1OC
[S] COCCCn1c(=O)c2[nH]c(-c3ccc(OCC(=O)O)cc3)cc2n(CCCOC)c1=O
List items by inhibition in falling order. List the labels in the requested order.
P, Q, S, R

[P] CCCn1c(=O)c2[nH]c(-c3ccc(OCC(=O)Nc4ccc(-c5ccccc5)cc4)cc3)cc2n(C)c1=O
[Q] CC(Oc1ccc(-c2cc3c([nH]2)c(=O)n(C)c(=O)n3C)cc1)C(=O)O (stereo not drawn)
[R] CCCn1c(=O)c2[nH]c(-c3ccc(OCC(=O)Nc4ccc(C(=O)OCC)cc4)cc3)cc2n(CCC)c1=O
List items by inhibition in falling order. List the labels in the requested order.
P, R, Q

[I] CCCn1c(=O)c2[nH]c(-c3ccc(OCC(=O)Nc4cnccn4)cc3)cc2n(CCC)c1=O
[II] Cn1c(=O)c2[nH]c(-c3ccc(OCC(=O)O)cc3)cc2n(C)c1=O
Quick check, higher inhibition between I and II ? Give the label under which the chosen entry appears.
I

[A] CCCn1c(=O)c2[nH]c(-c3ccc(OC(CC)C(=O)Nc4ccccc4)cc3)cc2n(CCC)c1=O (stereo not drawn)
[B] CCCn1c(=O)c2[nH]c(-c3ccc(OCC(=O)O)cc3)cc2n(C)c1=O
Quick check, higher inhibition between A and B ? Give the label under which the chosen entry appears.
A
(A: 93%, B: 63%)
